# Tested on: ZEAMX (Corn, Field)
# RUN DESCRIPTION: Postemergence herbicidal evaluation
# Format: in vivo, Zea mays
# CONDITION PARAMETERS: Rate 0.0158 kg/ha
Listed next: entries and their corresponding Postemergence herbicidal rating ZEAMX.
ENDPOINT NAME: Postemergence herbicidal rating ZEAMX

CCOC(=O)CN1C(=O)C(CC(=O)OC(C)C)SC1=Nc1cc(-n2c(=O)cc(C(F)(F)F)n(C)c2=O)c(F)cc1Cl (stereo not drawn); 7.5
C[C@@H](C(=O)O)N1C(=O)CS/C1=N/c1cc(-n2c(=O)cc(C(F)(F)F)n(C)c2=O)c(F)cc1Cl; 7.0
CCOC(=O)CN1CC(=O)N(CC(=O)OCC)C1=Nc1cc(-n2c(=O)cc(C(F)(F)F)n(C)c2=O)c(F)cc1Cl; 5.5
Cn1c(C(F)(F)F)cc(=O)n(-c2cc(/N=C3/SC(CC(=O)O)C(=O)N3CC(=O)O)c(Cl)cc2F)c1=O (stereo not drawn); 2.0
CCOC(=O)CN1C(=O)C(CC(=O)O)SC1=Nc1cc(-n2c(=O)cc(C(F)(F)F)n(C)c2=O)c(Cl)cc1Cl (stereo not drawn); 7.5
CN1C(=O)C(CC(=O)O)SC1=Nc1cc(-n2c(=O)cc(C(F)(F)F)n(C)c2=O)c(F)cc1Cl (stereo not drawn); 7.0
